The reported numbers originate from PubChem BioAssay AID1963858.

test system: HOP-62 multicell spheroids with HUVEC/MSC, viability; assay: Anticancer human tumor HOP-62 cell line growth inhibition [KRAS2]; conditions: second compound 3.16 µM; first compound 0.316 µM; hits give low values;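 note: viability read after a week of compound exposure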
Values of viability, T/C strictly less than 40% map to Criterion met, and values of at least 40% map to Criterion not met.

Example results:
# compound, discrete.label
measured = [
    ("CC1(C)CCC(CN2CCN(c3ccc(C(=O)NS(=O)(=O)c4ccc(NCC5CCOCC5)c([N+](=O)[O-])c4)c(Oc4cnc5[nH]ccc5c4)c3)CC2)=C(c2ccc(Cl)cc2)C1 + COc1cc2nc(C)nc(NC(C)c3cc(N)cc(C(F)(F)F)c3)c2cc1OC1CCOC1", "Criterion not met"),
    ("CC(=O)OC12COC1CC(O)C1(C)C(=O)C(O)C3=C(C)C(OC(=O)C(O)C(NC(=O)OC(C)(C)C)c4ccccc4)CC(O)(C(OC(=O)c4ccccc4)C21)C3(C)C (stereo not given) + C=CC(=O)N1CCN(c2nc(OCC3CCCN3C)nc3c2CCN(c2cccc4cccc(C)c24)C3)CC1CC#N", "Criterion met"),
]

Prompt: Confirm or reject: viability, T/C of Cn1nccc1Nc1nccc(-c2cc3c(s2)C(C)(C)N(CCN2CCOCC2)C3=O)n1 + CC1OCC2(CCN(c3cnc(Sc4ccnc(N)c4Cl)c(N)n3)CC2)C1N lies strictly below 40%
Response: Criterion met

Prompt: Consider CCNC(=O)CC1N=C(c2ccc(Cl)cc2)c2cc(OC)ccc2-n2c(C)nnc21 (stereo not given) + C=CC(=O)N1CCN(c2nc(=O)n(-c3c(C)ccnc3C(C)C)c3nc(-c4c(O)cccc4F)c(F)cc23)C(C)C1 . Does its viability, T/C lie strictly below 40%?
Response: Criterion met

Prompt: I wonder whether CC1OCC2(CCN(c3cnc(Sc4ccnc(N)c4Cl)c(N)n3)CC2)C1N (stereo not given) + C=CC(=O)N1CCN(c2nc(=O)n(-c3c(C)ccnc3C(C)C)c3nc(-c4c(O)cccc4F)c(F)cc23)C(C)C1 has viability, T/C below 40%. Can you tell?
Response: Criterion not met
